System: SN12C renal
Assay: NCI tumour cell line growth inhibition, 48 h; in the data active means GI50 below about 0.43 µM; inactive means the rest
Labels: 1 (yes) for active, 0 (no) for inactive

> print(dat)
                                   molecule  assigned.category
1  O=C(CCCCCNC1=CC(=O)c2ccccc2C1=O)NCCC[Te]c1ccccc1            1 (yes)
2  CCCCCCCCn1ccc2cc(NC(=O)Cn3cc(CN4CCC(C)CC4)nn3)ccc21             0 (no)
3  Cc1ccc(C2NC(=S)N3C(c4ccc(C)cc4)NC(=S)N23)cc1 (stereo unspecified)             0 (no)
4       Cc1ccc(-n2nnc3c(sc4ccccc43)c2=O)cc1             0 (no)
5  O=C1NC(=O)C(N2CCc3ccccc32)=C1c1ccc(Cl)cc1             0 (no)
6  CC[C@@]1(O)C(=O)OCc2c1cc1n(c2=O)Cc2cc3c(Cl)c4c(cc3nc2-1)OCO4            1 (yes)
